- assay.procedure: collision cross section of modified peptide (TIMS, N2, iRT-aligned); higher = larger / more extended gas-phase ion
- condition.parameters: charge state: 3; modification: Hydroxyproline
measured.quantity: collision cross section (Å²)
Give bare numbers, in Å².

# count of solved cases: 2
• GKLGVPGLPGYPGR [_GKLGVP(Hydroxyproline)GLPGYPGR_] = 481
• GERGPPGPPGK [_GERGPPGPP(Hydroxyproline)GK_] = 407.49

Batch: collision cross section for all items listed.
1. GEPGIPAIPGIRGPK [_GEPGIP(Hydroxyproline)AIPGIRGPK_]
2. GDKGDAGEPGR [_GDKGDAGEP(Hydroxyproline)GR_]
3. GPKGQQGEPGPK [_GPKGQQGEP(Hydroxyproline)GPK_]
4. GDAGEPGRPGSPGK [_GDAGEP(Hydroxyproline)GRPGSPGK_]
5. GEPGQGLRGLQGPPGK [_GEPGQGLRGLQGPP(Hydroxyproline)GK_]
6. PGPKGEAGPTGPQGEPGVR [_P(Hydroxyproline)GPKGEAGPTGPQGEPGVR_]
7. GERGVPGER [_GERGVP(Hydroxyproline)GER_]
8. DYQPGITFIVVQK [_DYQP(Hydroxyproline)GITFIVVQK_]

## Result
1. 511.46
2. 414.61
3. 444.16
4. 446.53
5. 445.73
6. 487.03
7. 402.04
8. 487.91

Please report collision cross section for every entry that follows.
1. GLPGLAGDHGEFGEK [_GLP(Hydroxyproline)GLAGDHGEFGEK_]
2. GGPGAPGAPGPKGESGDYK [_GGP(Hydroxyproline)GAPGAPGPKGESGDYK_]
3. TGPPGSTGSRGPPGPPGR [_TGPPGSTGSRGPPGPP(Hydroxyproline)GR_]
4. LGPPGNPGPSGSPGPKGQK [_LGPPGNP(Hydroxyproline)GPSGSPGPKGQK_]
5. GSIGFPGFPGANGEKGGR [_GSIGFP(Hydroxyproline)GFPGANGEKGGR_]
6. VGYPGPSGPLGAR [_VGYP(Hydroxyproline)GPSGPLGAR_]
7. GEKGNPGVGTQGPR [_GEKGNP(Hydroxyproline)GVGTQGPR_]

## Result
497.67
482.83
472.54
472.87
489.41
437.31
431.33

###

- assay.procedure: collision cross section of modified peptide (TIMS, N2, iRT-aligned); higher = larger / more extended gas-phase ion
- condition.parameters: charge state: 2; modification: Nitro (Y)
Please provide measured collision cross section for the entries that follow.
One number for each entry, in Å².

Field: example entries. Status: answers known.
* TYVQDILR [_TY(Nitro (Y))VQDILR_] | 350.96
* VYSGHQGR [_VY(Nitro (Y))SGHQGR_] | 327.94
* SYVDTGGVSR [_SY(Nitro (Y))VDTGGVSR_] | 342.4
* CYYGSDTAGR [_CY(Nitro (Y))YGSDTAGR_] | 352.25
* LPEYPQVDDLLLR [_LPEY(Nitro (Y))PQVDDLLLR_] | 424.61

List the reported collision cross section of each substance below.
1. DLATVYVDVLK [_DLATVY(Nitro (Y))VDVLK_]
2. AYPLADAHLTK [_AY(Nitro (Y))PLADAHLTK_]
3. APEYLHR [_APEY(Nitro (Y))LHR_]
4. VFLDCCNYITELR [_VFLDCCNY(Nitro (Y))ITELR_]
5. VSFLSALEEYTK [_VSFLSALEEY(Nitro (Y))TK_]
6. DYILEGEPGK [_DY(Nitro (Y))ILEGEPGK_]
7. VYPSSLSK [_VY(Nitro (Y))PSSLSK_]
8. LSSETYSQAK [_LSSETY(Nitro (Y))SQAK_]

## Result
[387.27, 382.67, 321.02, 448.56, 400.94, 355.27, 327.32, 352.74]

Please supply collision cross section for each of the following items, keeping them in order.
1. FHYQDQEFLK [_FHY(Nitro (Y))QDQEFLK_]
2. ASCLYGQLPK [_ASCLY(Nitro (Y))GQLPK_]
3. VELCSFSGYK [_VELCSFSGY(Nitro (Y))K_]
4. VHATSTYR [_VHATSTY(Nitro (Y))R_]

## Result
402.47
365.43
364.52
330

Give collision cross section for each listed item.
1. CQGGQETQEYR [_CQGGQETQEY(Nitro (Y))R_]
2. ALYETELADAR [_ALY(Nitro (Y))ETELADAR_]
3. IYELAAGGTAVGTGLNTR [_IY(Nitro (Y))ELAAGGTAVGTGLNTR_]

## Result
375.36
387.94
447.13

State the recorded collision cross section for every item in the following list.
1. YTAQVDAEEK [_Y(Nitro (Y))TAQVDAEEK_]
2. SPASDTYIVFGEAK [_SPASDTY(Nitro (Y))IVFGEAK_]
3. LNAIYQNNLTK [_LNAIY(Nitro (Y))QNNLTK_]
4. LQIASDENYK [_LQIASDENY(Nitro (Y))K_]
5. YADLTEDQLPSCESLK [_Y(Nitro (Y))ADLTEDQLPSCESLK_]

## Result
1: 358.81; 2: 402.5; 3: 384.56; 4: 364.55; 5: 442.66
